Source listed as ChEMBL document CHEMBL2321765.

- TESTED TARGET: CYP3A4 (Homo sapiens, UniProt P08684)
- Sequence (P08684 whole entry): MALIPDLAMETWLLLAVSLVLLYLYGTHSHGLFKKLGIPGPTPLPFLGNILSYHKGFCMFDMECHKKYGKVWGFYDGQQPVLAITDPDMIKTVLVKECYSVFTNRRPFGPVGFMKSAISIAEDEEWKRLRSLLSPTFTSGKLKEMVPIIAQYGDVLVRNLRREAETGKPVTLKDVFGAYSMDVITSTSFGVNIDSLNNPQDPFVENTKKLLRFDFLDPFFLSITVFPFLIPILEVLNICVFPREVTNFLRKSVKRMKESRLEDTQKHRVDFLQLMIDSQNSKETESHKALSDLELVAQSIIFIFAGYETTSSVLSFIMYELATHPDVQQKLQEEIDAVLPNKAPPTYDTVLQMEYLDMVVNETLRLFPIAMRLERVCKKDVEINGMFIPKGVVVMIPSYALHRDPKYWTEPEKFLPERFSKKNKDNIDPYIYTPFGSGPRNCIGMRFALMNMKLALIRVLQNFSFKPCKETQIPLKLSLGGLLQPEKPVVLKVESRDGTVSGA
- ASSAY PROTOCOL: Time dependent inhibition of CYP3A4 in human liver microsomes using testosterone as substrate at 10 uM preincubated for 30 mins by LC-MS-MS analysis relative to control
- Type: ADME, Microsome
- CONDITION DETAILS: probe testosterone, read-out: TDI
The entries below are paired with their reported inhibition at 30 min, 10 µM.
RESULT TYPE: inhibition at 30 min, 10 µM (%)

{"columns": ["COMPOUND", "RESULT TYPE", "OBSERVED MEASUREMENT"],
 "data": [
  ["Cn1cc(-c2cnc3ccc4ccc(CS(=O)(=O)NCC5COCCO5)cc4c(=O)c3c2)cn1 (centres undefined)", "inhibition at 30 min, 10 µM", 35],
  ["Cn1cc(-c2cnc3ccc4ccc(CS(=O)(=O)NCCc5ccccn5)cc4c(=O)c3c2)cn1", "inhibition at 30 min, 10 µM", 9],
  ["CN(C)S(=O)(=O)Nc1ccc2ccc3ncc(-c4cnn(C)c4)cc3c(=O)c2c1", "inhibition at 30 min, 10 µM", 30],
  ["Cn1cc(-c2cnc3ccc4ccc(CS(=O)(=O)NCc5ccccn5)cc4c(=O)c3c2)cn1", "inhibition at 30 min, 10 µM", 16],
  ["Cn1cc(-c2cnc3ccc4ccc(CS(=O)(=O)NCc5cccnn5)cc4c(=O)c3c2)cn1", "inhibition at 30 min, 10 µM", 14],
  ["Cn1cc(-c2cnc3ccc4ccc(CS(N)(=O)=O)cc4c(=O)c3c2)cn1", "inhibition at 30 min, 10 µM", 26],
  ["Cn1cc(-c2cnc3ccc4ccc(CS(=O)(=O)NCc5ccc(F)cc5F)cc4c(=O)c3c2)cn1", "inhibition at 30 min, 10 µM", 17],
  ["Cn1cc(-c2cnc3ccc4ccc(CS(=O)(=O)NCc5ccccc5Cl)cc4c(=O)c3c2)cn1", "inhibition at 30 min, 10 µM", 0],
  ["Cn1cc(-c2cnc3ccc4ccc(CS(=O)(=O)NCc5cnsc5)cc4c(=O)c3c2)cn1", "inhibition at 30 min, 10 µM", 13]
]}

* * *

- TESTED TARGET: CYP3A4 (Homo sapiens, UniProt P08684)
- ASSAY PROTOCOL: Inhibition of CYP3A4 in human liver microsomes using testosterone as substrate at 10 uM by LC-MS-MS analysis relative to control
- Format: ADME, Microsome
- CONDITION DETAILS: probe testosterone
inhibition at 10 µM vs 20%: at or above is true, below is false.

{"columns": ["COMPOUND", "ASSIGNED CLASS"],
 "data": [
  ["Cn1cc(-c2cnc3ccc4ccc(CS(=O)(=O)NCc5ccccn5)cc4c(=O)c3c2)cn1 [MK-8033]", "true"],
  ["Cn1cc(-c2cnc3ccc4ccc(CS(=O)(=O)N[C@@H]5CCCC[C@@H]5N)cc4c(=O)c3c2)cn1", "true"],
  ["Cn1cc(-c2cnc3ccc4ccc(CS(=O)(=O)NCc5ccccc5Cl)cc4c(=O)c3c2)cn1", "false"],
  ["Cc1nccc(CNS(=O)(=O)Cc2ccc3ccc4ncc(-c5cnn(C)c5)cc4c(=O)c3c2)n1", "true"],
  ["Cn1cc(-c2cnc3ccc4ccc(CS(=O)(=O)Nc5ccccc5)cc4c(=O)c3c2)cn1", "true"]
]}
